The reader will find reported activation at 10 µM values listed item by item below.
MEASUREMENT_TARGET: human GPR120 (Homo sapiens)
Construct: expressed in transfected cells
Sequence (Q5NUL3 1-361): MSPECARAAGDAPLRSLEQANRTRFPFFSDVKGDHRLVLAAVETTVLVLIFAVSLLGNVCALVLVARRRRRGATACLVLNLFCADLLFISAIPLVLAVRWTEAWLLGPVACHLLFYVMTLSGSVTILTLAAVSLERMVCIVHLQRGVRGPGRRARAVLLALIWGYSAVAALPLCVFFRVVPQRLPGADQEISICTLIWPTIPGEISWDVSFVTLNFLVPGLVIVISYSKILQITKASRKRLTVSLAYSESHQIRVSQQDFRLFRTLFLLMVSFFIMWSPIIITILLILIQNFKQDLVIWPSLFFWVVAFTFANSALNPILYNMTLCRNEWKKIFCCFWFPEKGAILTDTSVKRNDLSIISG
TEST_DETAILS: Measurement of intracellular calcium concentration (FLIPR), GPR120 agonist action
Assay type: cell-based
CONDITION_INFO: 10 μmol/l test compound, human GPR120 expression CHO cells, Fluo-4 AM, read-out: Agonistic activity at 10 μmol/l (%)
Where a name gives a salt, the structure may show the parent alone.
Could you give me the number in %? Just the number is fine.

# annotated cases, reported activation at 10 µM shown
>>> observed_value("CC(C)Oc1cccc(SC(C)Cc2ccc(-c3cc(O)no3)cc2)c1 (centres unmarked) [Example 55]")
101
>>> observed_value("CC(C)Oc1cccc(C[C@H](C)Oc2ccc(-c3cc(O)no3)cn2)c1 [Example 27, Hydrochloride]")
99
>>> observed_value("CC(C)Oc1cccc(CC(C)Oc2ccc(-c3cc(O)no3)nc2)c1 (centres unmarked) [Example 8]")
96
>>> observed_value("CC(C)Oc1cccc(CC(C)Oc2ccc(-c3cc(O)no3)cc2F)c1 (centres unmarked) [Example 54]")
100

Okay, next one:
Checklist item: activation at 10 µM tested on human GPR120 (Homo sapiens), entry CC(C)Oc1cccc(C(F)COc2ccc(-c3cc(O)no3)cc2)c1 (centres unmarked) [Example 29] , value? 102

The origin of these recorded values is patent US20110065739A1.
